These measurements were taken from patent US20170267762A1.

Exercise: for every item that follows, state its recorded koff.
# MEASURED_ON: T1, human PD-1 (construct not stated) (human, UniProt Q15116 25-167, limits assumed)
# T1 construct: also called PD-1 analyte
# PROCEDURE_SUMMARY: Biacore, antibody captured, PD-1 analyte
Record the result as number plus unit.

Some binders with known koff results, for comparison:
INSERT INTO results (binder, result) VALUES
  ('22A5 murine anti-PD-1 antibody (antibody, V domains shown, Purified hybridoma antibody; also called 22A5-mIgG1) VH: EVKLVESGGGLVKPGGSLKLSCSASGFSFSYYDMSWVRQTPEKGLEWVATISGGGRNTYFIDSVKGRFTISRDNVKNNLYLLMSSLRSEDTALYYCASPYEGAVDFWGQGTSVTVSS VL: DIVMTQSHKVMSTSVGDRVSITCKASQDVDNAVAWYQQNPGQSPKLLIKWASTRHHGVPDRFTGSGSGTDFTLTISTVQSEDLADFFCQQYSTFPYTFGGGTKLEIKR', '2.88e-05 s⁻¹'),
  ('14A6 murine anti-PD-1 antibody (antibody, V domains shown, Purified hybridoma antibody; also called 14A6-mIgG1) VH: DVQLQESGPGLVKPSQSLSLTCTVTGYSITSDYAWNWIRQFPGNQLEWMAYISYSGYTSYNPSLKSRISITRDTSRNQFFLQLNSVTTEDTATYYCARSLDYDYGTMDYWGQGTSVTVSS VL: QIVLSQSPAILSASPGEKVTMTCRANSSVSSMHWYQQKPGSSPEPWIYAISNLAFGVPARFSGSGSGTSYSLTISRVEAEDAATYFCQQWNSRPPTFGGGTKLEIKR', '4.52e-05 s⁻¹'),
  ('10D1 murine anti-PD-1 antibody (antibody, V domains shown, Purified hybridoma antibody; also called 10D1-mIgG1) VH: EVKLVESGGGLVKPGGSLKLSCAASGFTFSSYGMSWLRQTPEKRLEWVATMSGGGRDIYYPDSMKGRFTISRDNAKNNLYLQMSSLRSEDTALYYCARQYYDDWFAYWGQGTLVTVSA VL: DIVLTQTPATLSVTPGDSVSLSCRASQSISNNLHWYQQKSHESPRLLIKYASQSISGIPSRFSGSGSGTDFTLNINSVETEDFGMYFCQQSNSWPLTFGAGTKLELKR', '5.24e-05 s⁻¹');

Note: attention shifts to another entry.
Ask: May I ask what koff has been recorded for 6E1 murine anti-PD-1 antibody (antibody, V domains shown, Purified hybridoma antibody; also called 6E1-mIgG1) VH: EVKLVESGGGLVKPGGSLKLSCAASGFTFSSYGMSWVRQTPEKRLEWVATISGGGRDTYYLDSVKGRFTISRDNAKNNLYLQMSSLRSEDTALYYCVRQYYDDWFAYWGQGTLVSNSA VL: DIVLTQTPATLSVTPGDSVSLSCRASQSLSNNLHWYQQKSHESPRLLIKYASQSISGIPSRFSGSGSGTDFTLSINSVETEDFGMYFCQQSNSWPLTFGAGTKLEMKR ?
Result: 2.83e-05 s⁻¹
